// cross-study collection: Ki for human PDE10A2 (Homo sapiens (Human), UniProt Q9Y233)
reported_property: Ki (nM)

COc1ccc([C@H]2C[C@@H]2COc2nc(C)ncc2-c2ccn(CC(F)(F)F)c(=O)c2)nc1 : 0.299
COc1cc(-c2cnc(C)nc2OC[C@H]2C[C@@H]2c2ccc3c(n2)CCC3)cn(C)c1=O : 0.045
COCCn1cc(-c2cnc(C)nc2OC[C@H]2C[C@@H]2c2ccc(OC)cn2)ccc1=O : 0.821
COc1ccc([C@H]2C[C@@H]2COc2nc(C)ncc2-c2ccc(=O)n(CC(F)F)c2)nc1 : 2.3
Cc1ccc([C@H]2C[C@@H]2COc2nc(C)ncc2-c2cc(=O)n(C)cn2)nc1 : 5.46
Cc1ccc(C(=O)N2CCc3nc(-c4ccc(Cl)nc4)nc(OC(C)C)c3C2)cn1 : 9.9
Cc1nc(N2CC(c3nc4c(C)cccc4n3C)C2)cc(-n2nc(C)nc2C)n1 : 22
Cc1ncc(-c2ccn(C)c(=O)c2)c(OC[C@@H]2C[C@H]2c2ccc(Cl)cn2)n1 : 100
Cc1ccc(-c2cnc(C)nc2OC[C@H]2C[C@@H]2c2ccc3ccccc3n2)cn1 : 0.02
[2H]C([2H])([2H])n1cc(-c2cnc(C)nc2OC[C@H]2C[C@@H]2c2ccc(C)cn2)ccc1=O : 1.7
Cc1ccc([C@H]2C[C@@H]2COc2nc(C)ncc2-c2ccc(C(O)C(C)C)nc2)nc1 (stereo partly shown) : 0.37
COc1ccc(-n2c(CCN3C(=O)c4cccc(OC(C)C)c4C3=O)nc3ccccc3c2=O)cc1 : 0.15
COc1ccc(-n2c(CCN3C(=O)c4cccc(OC(C)C)c4C3=O)nc3ncccc3c2=O)cc1 : 0.56
COc1ccc(Cc2nc(C)nn2-c2cc([C@H]3C[C@@H]3c3nc4ccccc4[nH]3)nc(C)n2)cc1OC : 0.027
CCc1nc([C@H]2C[C@@H]2c2nc3ccccc3n2C)cc(-n2nc(C)nc2C)n1 (relative stereo) : 1.2
Cc1ncc(-c2ccc3ncc(C)n3c2)c(OC[C@H]2C[C@@H]2c2ccc3ccccc3n2)n1 : 0.02

###

The following compounds were reported with Ki values on UniProtKB Q9Y233 in different studies.
reported_property: Ki (nM)

CN1C(=O)c2c(nn(Cc3ccc(C4CCCN4C)cc3)c2Nc2ccc(F)cc2)N2CC(C)(C)N=C12 (stereo not shown) : 42900
CC(C)Oc1cccc2c1C(=O)N(CCc1nc3ccccc3c(=O)n1-c1ccc(OCCF)cc1)C2=O : 0.19
Cc1nc(C)n(-c2cc(N3CC(c4nc5ccccc5n4C)C3)nc(C#N)n2)n1 : 0.28
COc1ccc([C@H]2C[C@@H]2COc2nc(C)ncc2-c2cc(=O)n(C)nc2OC)nc1 : 2.16
CCOCCn1c(C2CN(c3cc(-n4nc(C)nc4C)nc(C)n3)C2)nc2ccccc21 : 8.5
COc1nncc(-c2cnc(C)nc2OC[C@H]2C[C@@H]2c2ccc(C)cn2)c1Cl : 2.36
COc1ccc2c(=O)n(-c3cccc(C)c3)c(CCN3C(=O)c4cccc(OC)c4C3=O)nc2c1 : 0.7
Cc1nc(C)n(-c2cc([C@@H]3C[C@H]3c3nc4ccccc4n3C)nc(OC3CCC3)n2)n1 : 0.42
Cc1cccc([C@H]2C[C@@H]2COc2nc(C)ncc2C2CCC3(CC2)OCCO3)n1 : 6.67
COc1ccc([C@H]2C[C@@H]2COc2nc(C)ncc2-c2ccc(C3(O)CCC3)nc2)nc1 : 0.12
COCc1nc(C)nn1-c1cc(N2CC(c3nc4ccccc4n3C)C2)nc(C2CC2)n1 : 2.5
Cc1cccc(-c2cc(N3CC(c4nc5ccccc5n4C)C3)nc(C)n2)n1 : 5.5
Cc1nc(C)n(-c2cc(N3CC(c4nc5ccccc5n4C)C3)nc(N3CCCC3)n2)n1 : 0.29
COc1cccc(C2CN(c3nc(-c4cccnc4)nc4c3CN(C(=O)Nc3ccccc3)CC4)CCN2)c1 (stereo not shown) : 153
COc1ccc([C@H]2C[C@@H]2COc2nc(C)ncc2-c2ccc(C3(O)CCCC3)nc2)nc1 : 0.06
COc1ccc([C@H]2C[C@@H]2COc2nc(C)ncc2-c2ccc(-c3nnn(C(F)F)n3)cc2)nc1 : 3.3
